- experimental_target: UniProtKB Q04206
- Sequence (Q04206 whole entry): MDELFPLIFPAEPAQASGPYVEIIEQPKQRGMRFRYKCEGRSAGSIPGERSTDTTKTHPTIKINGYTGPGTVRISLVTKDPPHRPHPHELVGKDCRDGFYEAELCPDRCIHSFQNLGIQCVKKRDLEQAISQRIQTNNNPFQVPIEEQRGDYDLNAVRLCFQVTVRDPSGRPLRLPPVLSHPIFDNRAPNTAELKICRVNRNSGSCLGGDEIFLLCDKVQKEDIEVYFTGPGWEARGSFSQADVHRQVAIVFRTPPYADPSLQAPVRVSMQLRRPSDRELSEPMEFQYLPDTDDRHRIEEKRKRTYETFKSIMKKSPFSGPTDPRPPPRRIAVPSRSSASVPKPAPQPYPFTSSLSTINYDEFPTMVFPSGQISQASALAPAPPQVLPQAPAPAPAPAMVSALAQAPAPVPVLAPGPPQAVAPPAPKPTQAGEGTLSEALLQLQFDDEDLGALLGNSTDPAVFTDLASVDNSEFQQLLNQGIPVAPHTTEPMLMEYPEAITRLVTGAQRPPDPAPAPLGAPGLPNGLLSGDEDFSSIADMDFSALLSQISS
measurement_kind: pIC50
To interpret pIC50, take it as minus log10 of a concentration measured in moles per litre.

The following molecules have reported results that may help.
{"columns": ["molecule", "pIC50"],
 "data": [
  ["C=C(C)[C@@H]1CC[C@]2(CO)CC[C@]3(C)[C@H](CC[C@@H]4[C@@]5(C)CC[C@H](O)C(C)(C)[C@@H]5CC[C@]43C)[C@@H]12 [BETULIN]", 5.06],
  ["C[C@H]1[C@H](C)CC[C@]2(C(=O)O)CC[C@]3(C)C(=CC[C@@H]4[C@@]5(C)CC[C@H](O)C(C)(C)[C@@H]5CC[C@]43C)[C@H]12 [URSOLIC ACID]", 7.51],
  ["COc1cc2c(=O)oc3c(OC)c(O)cc4c(=O)oc(c1OC)c2c34", 5.80],
  ["C=C(C)[C@@H]1CC[C@]2(C(=O)O)CC[C@]3(C)[C@H](CC[C@@H]4[C@@]5(C)CC[C@H](OC(=O)/C=C/c6ccc(O)c(OC)c6)C(C)(C)[C@@H]5CC[C@]43C)[C@@H]12", 5.27],
  ["C=C(C)[C@@H]1CC[C@]2(C(=O)O)CC[C@]3(C)[C@H](CC[C@@H]4[C@@]5(C)C[C@@H](O)[C@H](OC(=O)/C=C/c6ccc(O)cc6)C(C)(C)[C@@H]5CC[C@]43C)[C@@H]12", 5.33],
  ["C=C(C)[C@@H]1CC[C@]2(C(=O)OC)CC[C@]3(C(=O)O)[C@H](CC[C@@H]4[C@@]5(C)CC[C@H](O)C(C)(C)[C@@H]5CC[C@]43C)[C@@H]12", 5.82]
]}

Now examine the next entry.
Prompt: # return pIC50 for C=C(C)[C@@H]1CC[C@]2(C(=O)O)CC[C@]3(C)[C@H](CC[C@@H]4[C@@]5(C)C[C@@H](O)[C@H](O)C(C)(C)[C@@H]5CC[C@]43C)[C@@H]12 [ALPHITOLIC ACID] , test system: UniProtKB Q04206
Completion: 5.06
